Each item that follows carries a reported IC50.
Target: KRasG12C (M1-K169, biotinylated on the N-terminus) (Homo sapiens (Human), UniProt P01116, G12C)
Assay: Covalent competition assay: scintillation proximity assay (SPA) quantifying covalent modification of KRASG12C
Conditions: competition with radiolabeled covalent probe (Compound B/Compound A), 2 hours incubation, 10 nM KRasG12C
parameter: IC50 (µM)

[
  {
    "compound": "C=CC(=O)N1CC2(CC(n3nc(N4CCN(C5CCOCC5)C[C@]4(C)C(F)F)c(-c4c(Cl)c(C)cc5[nH]ncc45)c3C)C2)C1 (single isomer, unassigned) [Example 151b]",
    "parameter": "IC50",
    "measurement-unit": "µM",
    "op": ">",
    "assay-value": 5
  },
  {
    "compound": "C=CC(=O)N1CC2(CC(n3nc(N4CCN(C5COC5)C5COCC54)c(-c4c(Cl)c(C)cc5[nH]ncc45)c3C)C2)C1 (centres unmarked) [Example 136b]",
    "parameter": "IC50",
    "measurement-unit": "µM",
    "op": ">",
    "assay-value": 5
  },
  {
    "compound": "C=CC(=O)N1CC2(CC(n3nc(N4CC[C@@H](CN5CC6(CCS(=O)(=O)C6)C5)CC4(C)C)c(-c4c(Cl)c(Cl)cc5[nH]ncc45)c3C)C2)C1 (single isomer, unassigned) [Example 254a]",
    "parameter": "IC50",
    "measurement-unit": "µM",
    "op": "=",
    "assay-value": 2.6
  },
  {
    "compound": "C=CC(=O)N1C[C@]2(C[C@H](n3nc(N4CCN(C[C@@H]5COCCO5)C[C@]4(C)CC)c(-c4c(Cl)c(C)cc5[nH]ncc45)c3C)C2)[C@H]1C (single isomer, unassigned) [Example 200a]",
    "parameter": "IC50",
    "measurement-unit": "µM",
    "op": ">",
    "assay-value": 5
  },
  {
    "compound": "C=CC(=O)N1CC2(CC(n3nc(N4CC[C@@H](CN5C[C@@H]6CS(=O)(=O)C[C@@H]6C5)CC4(C)C)c(-c4c(Cl)c(Cl)cc5[nH]ncc45)c3C)C2)C1 (single isomer, unassigned) [Example 294a]",
    "parameter": "IC50",
    "measurement-unit": "µM",
    "op": "=",
    "assay-value": 4.7
  }
]

---

Each item that follows carries a reported pIC50.
Target: KRasG12C (M1-K169, biotinylated on the N-terminus) (Homo sapiens (Human), UniProt P01116, G12C)
Assay: Covalent competition assay: scintillation proximity assay (SPA) quantifying covalent modification of KRASG12C
Settings: competition with radiolabeled covalent probe (Compound B/Compound A), 2 hours incubation, 10 nM KRasG12C
pIC50: −log10 of the molar value.

[
  {
    "compound": "C=CC(=O)N1CC2(CC(n3nc(N4CCN(CCO)CC45CCC5)c(-c4c(Cl)c(C)cc5[nH]ncc45)c3C)C2)C1 (single isomer, unassigned) [Example 162a]",
    "pIC50": "< 5.30"
  },
  {
    "compound": "C=CC(=O)N1CC2(CC(n3nc(N4CC=C(CN5CCOCC5)CC4(C)C)c(-c4c(Cl)c(Cl)cc5[nH]ncc45)c3C)C2)C1 (single isomer, unassigned) [Example 220a]",
    "pIC50": "< 5.30"
  },
  {
    "compound": "C=CC(=O)N1CC2(CC(n3nc(N4CCN(C5COC5)CC45CCC5)c(-c4c(C)c(O)cc(C)c4Cl)c3C)C2)C1 (single isomer, unassigned) [Example 49b]",
    "pIC50": "< 5.30"
  },
  {
    "compound": "C=CC(=O)N1CC2(CC(n3nc(N4CCN(C5COC5)CC45CCOC5)c(-c4c(Cl)c(C)cc5[nH]ncc45)c3C)C2)C1 (stereo not drawn) [Example 141a]",
    "pIC50": "< 5.30"
  },
  {
    "compound": "C=CC(=O)N1CC2(CC(n3nc(N4CCC(=O)CC45CCC5)c(-c4c(Cl)c(C)cc5[nH]ncc45)c3C)C2)C1 [Example 47]",
    "pIC50": "< 5.30"
  },
  {
    "compound": "C=CC(=O)N1CC2(CC(n3nc(N4CC[C@@H](CN5C[C@@H]6C[C@H]5CS6(=O)=O)CC4(C)C)c(-c4c(Cl)c(Cl)cc5[nH]ncc45)c3C)C2)C1 (single isomer, unassigned) [Example 249a]",
    "pIC50": "< 5.30"
  }
]

---

Target: KRasG12C (M1-K169, biotinylated on the N-terminus) (Homo sapiens (Human), UniProt P01116, G12C)
Assay: Covalent competition assay: scintillation proximity assay (SPA) quantifying covalent modification of KRASG12C
Conditions: competition with radiolabeled covalent probe (Compound B/Compound A), 2 hours incubation, 10 nM KRasG12C
pIC50: −log10 of the molar value.

[
  {
    "compound": "C=CC(=O)N1CC2(CC(n3nc(N4CCN(c5ccnnc5)C[C@]4(C)CC)c(-c4c(Cl)c(C)cc5[nH]ncc45)c3C)C2)C1 (single isomer, unassigned) [Example 192a]",
    "pIC50": "< 5.30"
  },
  {
    "compound": "C=CC(=O)N1CC2(CC(n3nc(N4CCN(C5CC6(COC6)C5)CC45CCC5)c(-c4c(Cl)c(C)cc5[nH]ncc45)c3C)C2)C1 (single isomer, unassigned) [Example 135a]",
    "pIC50": "< 5.30"
  },
  {
    "compound": "C=CC(=O)N1CC2(CC(n3nc(N4CCCc5c(cnn5C)C4)c(-c4c(Cl)c(C)cc5[nH]ncc45)c3C)C2)C1 (single isomer, unassigned) [Example 43a]",
    "pIC50": "< 4.30"
  },
  {
    "compound": "C=CC(=O)N1CC2(CC(n3nc(N4CC[C@@H](CN5CCN(CCO)C(=O)C5)CC4(C)C)c(-c4c(Cl)c(Cl)cc5[nH]ncc45)c3C)C2)C1 (single isomer, unassigned) [Example 251a]",
    "pIC50": "< 5.30"
  },
  {
    "compound": "C=CC(=O)N1CC2(CC(n3nc(N4CCN(C5COC5)CC45CCC5)c(-c4c(C)c(Cl)cc5[nH]ncc45)c3C)C2)C1 (single isomer, unassigned) [Example 79a]",
    "pIC50": "< 5.30"
  },
  {
    "compound": "C=CC(=O)N1CC2(CC(n3nc(N4CCN(C(C)=O)CC4)c(-c4c(C)c(C)cc5[nH]ncc45)c3C)C2)C1 (single isomer, unassigned) [Example 2a]",
    "pIC50": "< 4.30"
  },
  {
    "compound": "C=CC(=O)N1CC2(CC(n3nc(N4CC[C@@H](CN5CC6(COCCN6C)C5)CC4(C)C)c(-c4c(Cl)c(Cl)cc5[nH]ncc45)c3C)C2)C1 (single isomer, unassigned) [Example 291a]",
    "pIC50": "< 5.30"
  },
  {
    "compound": "C=CC(=O)N1CC2(CC(n3nc(N4CC[C@@H](CN5CC6(C5)CN(C)C(=O)O6)CC4(C)C)c(-c4c(Cl)c(Cl)cc5[nH]ncc45)c3C)C2)C1 (single isomer, unassigned) [Example 284b]",
    "pIC50": 8.10
  },
  {
    "compound": "C=CC(=O)N1CC2(CC(n3nc(N4CCN(C5CCCOC5)C[C@]4(C)CC)c(-c4c(Cl)c(C)cc5[nH]ncc45)c3C)C2)C1 (single isomer, unassigned) [Example 157a]",
    "pIC50": "< 5.30"
  }
]

---

Each item that follows carries a reported IC50.
Molecular target: KRasG12C (M1-K169, biotinylated on the N-terminus) (Homo sapiens (Human), UniProt P01116, G12C)
Assay: Covalent competition assay: scintillation proximity assay (SPA) quantifying covalent modification of KRASG12C
Details: competition with radiolabeled covalent probe (Compound B/Compound A), 2 hours incubation, 10 nM KRasG12C
parameter: IC50

[
  {
    "molecule": "C=CC(=O)N1CC2(CC(n3nc(N4CCC(CN5C[C@@H]6OCCO[C@@H]6C5)CC4(C)C)c(-c4c(Cl)c(Cl)cc5[nH]ncc45)c3C)C2)C1 (single isomer, unassigned) [Example 232a]",
    "parameter": "IC50",
    "assay-value": "> 5 µM"
  },
  {
    "molecule": "C=CC(=O)N1CC2(CC(n3nc(N4[C@H](C)CN(C(C)=O)C[C@@H]4C)c(-c4c(Cl)c(C)cc5[nH]ncc45)c3C)C2)C1 (single isomer, unassigned) [Example 13a]",
    "parameter": "IC50",
    "assay-value": "> 50 µM"
  },
  {
    "molecule": "C=CC(=O)N1CC2(CCC(n3nc(N4CCN(C(C)=O)CC4)c(-c4c(Cl)ccc5[nH]ncc45)c3C)C2)C1 (single isomer, unassigned) [Example 53c]",
    "parameter": "IC50",
    "assay-value": "> 50 µM"
  }
]
